The values you see were collected from the supplement of paper PMC3545927.

- MEASURED TARGET: furin, P09958;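 note: purified furin at 1:10 enzyme:substrate in 50 mM HEPES pH 7.5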
- Sequence (P09958 whole entry): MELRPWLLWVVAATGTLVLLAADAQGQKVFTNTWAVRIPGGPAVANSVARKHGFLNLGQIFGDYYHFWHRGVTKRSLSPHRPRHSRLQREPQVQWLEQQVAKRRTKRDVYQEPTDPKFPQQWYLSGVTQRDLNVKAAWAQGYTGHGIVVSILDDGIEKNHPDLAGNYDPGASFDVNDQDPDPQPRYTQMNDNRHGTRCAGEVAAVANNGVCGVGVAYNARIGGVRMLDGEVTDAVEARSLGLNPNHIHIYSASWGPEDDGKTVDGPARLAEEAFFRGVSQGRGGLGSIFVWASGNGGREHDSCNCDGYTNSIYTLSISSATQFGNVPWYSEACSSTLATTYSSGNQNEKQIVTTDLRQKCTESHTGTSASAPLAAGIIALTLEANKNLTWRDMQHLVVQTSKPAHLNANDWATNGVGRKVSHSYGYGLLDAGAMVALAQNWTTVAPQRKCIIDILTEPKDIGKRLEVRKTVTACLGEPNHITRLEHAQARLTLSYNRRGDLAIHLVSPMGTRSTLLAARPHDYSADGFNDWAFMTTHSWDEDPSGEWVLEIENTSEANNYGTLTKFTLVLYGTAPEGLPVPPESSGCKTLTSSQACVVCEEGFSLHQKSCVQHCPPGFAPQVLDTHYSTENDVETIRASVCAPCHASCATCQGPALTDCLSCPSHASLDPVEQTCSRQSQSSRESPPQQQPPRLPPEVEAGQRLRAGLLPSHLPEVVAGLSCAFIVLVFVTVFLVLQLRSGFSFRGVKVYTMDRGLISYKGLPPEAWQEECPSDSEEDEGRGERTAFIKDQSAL
- MEASUREMENT NOTES: furin cleavage Z-score vs untreated control; higher = more cleavage, active = 3.5 or more, inactive = 1 or less, 8 variable residues between constant flanks
- RUN PARAMETERS: 30 min
The other results are listed elsewhere or left out. No count for the full screen is at hand.
Each entry below lists one item and its recorded furin cleavage Z-score value.
Please respond with just the number, no unit label.

Solved entries (count: 3):
[[record]]
sequence_entry = "CAATSILGIGAGNASASA [HC822]"
quantity_name = "furin cleavage Z-score"
obs_value = 0.323

[[record]]
sequence_entry = "CALPAPNYTFAGNASASA [HC1197]"
quantity_name = "furin cleavage Z-score"
obs_value = -0.727

[[record]]
sequence_entry = "CARRGRAGSDAGNASASA [FS-2065]"
quantity_name = "furin cleavage Z-score"
obs_value = -0.432


Now for the sequence whose furin cleavage Z-score we want.
Just so you know, measured furin cleavage Z-score for CAEDEVPCHRAGNASASA [HC2451] came out at 1.09
